- ASSAY NOTES: yeast display, Sf9 membrane polyspecificity reagent, FACS + sequencing; frameworks hold sequencing errors
QUANTITY: polyreactivity (PSR sort gate)

Previously resolved entries follow.
ITEM SEQUENCE | RESULT
QVQLVESGGGLVQAGGSLRLSCAASGRIFYYNAMGWYRQAPGKERELVAAINIGGGTKYADSVKGRFTISRDNAKNTVYLQMNSLKPEDTAVYYCAAGIKRYLSYYTRYGYWGQGTQVTVSS | high polyreactivity
QVQLVESGGGLVQAGGSLRLSCAASGYTFPSYALGWYRQAPGKERELVAVITIGGTYYADSVKGRFTISRDNAKNTVYLQMNSLKPEDTAVYYCAADWAWDYYRGFDYLGQGTQVTVSS | low polyreactivity
QVQLVESGGGLVQAGGSLRLSCAASGIISSVYAMGWYRQARGKERELVAAISGSGGSTYYADSVKGRFTISRDNAKNTVYLQMNSLKPEDTAVYYCAKGYQYQGNSYGYWGQGTQVTVSS | low polyreactivity
QVQLVESGGGLVQAGGRLRLSCAASGRIFWSNTMGWYRQAPGKERELVAAISGRGGSTYYPDSVKGRFTISRDNAKNTVYLQMNSLKPEDTAVYYCAAKPTRSRKIYEYWGQGTQVTVSS | low polyreactivity
QVQIVESGGGLVQAGGSLSLSCAASGYNFYSYAMGWYRQAPGTKRELVAAITNSGGSTYYADSVKGRFTISRDNAKNTVYLQMNSLKPEDTAVYSCNASYWRAYSYKYDYWGQGTQVTVSS | high polyreactivity

The measured polyreactivity (PSR sort gate) associated with QVQLVESCGGLVQAGGSLRLSCAASGSIFGTNAMGWYRQAPGKERELVASITRGGSTNYADSVKGRFTISRDNAKNTVYLQMNSLTPEDTAVYYCNAQGHWRWWGYDYWGQGTQVTVSS reads low polyreactivity

The sequence listed as QVQLVESAGGLVQAGGRLRLSCAAYGFTFNKYAMGWSRQAPGKEREVVAYISSGDRTYYADSVKGRFTISRDNAKNTVYLQMNSLKPEDTAVYYCNAPYRIILENNNYWGHGTQVTVSS has a reported polyreactivity (PSR sort gate) of high polyreactivity

Note to self: polyreactivity (PSR sort gate) recorded for QFQLVESGGGLVQARGSLRLSCAASGRIFSWYAMGWYRQAPGKETELVAGLNRNGGSTYYPDSVKGRFTISRDNAKNTVYLQMNSQKPEDTAVYYCAKGQYYYTGDYDYWGQGTQVTVSS was high polyreactivity

The value of polyreactivity (PSR sort gate) measured for the sequence QVQLVESGGGLVQAGGSLRLSCAASGSIFGIYAMGWYRQAPGKERELVAAIRRGGSTYYADSVKGRFTISRDNAKNTVYLQMNSLKPEDTAVYYCAGRKYRLWGKGVDYDFCGQGTQVTVSS turned out to be high polyreactivity

Short answer for QVQLVESGGGLVQAGGSLRLSCAASGRIFGVNAMGGDRQAPGKERELVAVISSGGSTYYADSVKGRFTISRDNAKNTVYLQMNSLKPEDTAVYYCAAGYLPDYDYWGQGTQVTVSS : polyreactivity (PSR sort gate) was low polyreactivity
